TARGET: recombinant GSK3β kinase (Homo sapiens (Human), UniProt P49841)
Sequence (P49841 whole entry): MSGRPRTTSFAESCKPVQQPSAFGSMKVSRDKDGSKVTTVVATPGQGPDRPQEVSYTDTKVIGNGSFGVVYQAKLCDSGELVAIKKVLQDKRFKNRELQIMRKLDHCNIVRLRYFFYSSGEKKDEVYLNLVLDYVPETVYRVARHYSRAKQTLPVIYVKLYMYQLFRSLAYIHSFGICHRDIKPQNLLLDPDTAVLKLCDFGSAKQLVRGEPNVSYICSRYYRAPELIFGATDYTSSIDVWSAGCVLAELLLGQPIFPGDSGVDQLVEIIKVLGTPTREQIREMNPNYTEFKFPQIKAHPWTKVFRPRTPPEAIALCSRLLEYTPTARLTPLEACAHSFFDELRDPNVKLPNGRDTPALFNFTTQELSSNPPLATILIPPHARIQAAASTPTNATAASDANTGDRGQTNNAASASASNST
TEST_METHOD_NOTES: GSK3β kinase assay (Ser/Thr 09 peptide Z-lyte FRET);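 also: kinase activity read as coumarin to fluorescein emission ratio, 11-point threefold dilutions from 10 µM to 0.0003 µM in duplicate, unphosphorylated and phosphorylated peptide as 0% and 100% controls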
DETAILS: 46 μM ATP, 1 h room temperature
Reported pEC50 values for a set of molecules
Schema: pEC50 number; meaning minus log10 of the concentration expressed in molar units.

Some solved entries appear below for comparison.
pEC50 for Cn1cncc1-c1ccc2cnc(NC(=O)C3(F)CC3)cc2c1 ? 6.63

Then what about the molecule Cc1nnc(-c2ccc3cnc(NC(=O)[C@H]4CC[C@H](CO)CC4)cc3c2)s1 ? 8.10

How about this molecule: O=C(Nc1cc2cc(-c3cnco3)ccc2cn1)[C@@H]1CCCNC1 5.96

One more molecule: O=C(Nc1cc2cc(-c3cnc4n3CCNC4)ccc2cn1)C1CCN(CC2(C(F)(F)F)CC2)CC1 7.00

Follow-up item: [2H]C([2H])([2H])n1cc(-c2cc3cc(NC(=O)CN4CCCCC4)ncc3cc2F)cn1 7.00

Moving on to the next molecule: [2H]C([2H])([2H])n1cc(-c2ccc3cnc(NC(=O)CN4CCCC4)cc3c2)cn1 7.29

Continuing:
Quick one: pEC50 for Cn1cc(-c2ccc3cnc(NC(=O)CC4CNCCO4)cc3c2)cn1 (centres unmarked) ? 7.18

Further, for C[C@H](C(=O)Nc1cc2cc(-c3cnn(C)c3)ccc2cn1)N1CCCC1 ? 7.92

---

System: Wnt pathway (Sp5-Luc reporter, TCF/LEF binding sites) in SW480 colon carcinoma cells
TEST_METHOD_NOTES: Screening assay for Wnt activity: Sp5-Luc reporter gene assay;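 also: firefly luciferase luminescence read in stably transduced SW480 cells carrying the Sp5 promoter reporter with eight TCF/LEF sites, compounds given in 0.1% DMSO final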
Format: cell-based, human
DETAILS: Homo sapiens; Sp5-Luc reporter, SW480 cells, 36 to 48 hours
Please respond with 1 when measured EC50 is strictly beneath 3000 nM, and with -1 in all other cases.

Illustrative cases are given below, each with its answer.
EC50 under 3000 nM? Item: Cn1cc(-c2ccc3cnc(NC(=O)C4CCN(Cc5cnccn5)CC4)cc3c2)cn1 [Compound 1004] 1

Another molecule to check: [2H]C([2H])([2H])n1cc(-c2ccc3cnc(NC(=O)CN4CCCCC4)cc3c2)cn1 [Compound 306] -1

Would you kindly repeat that for CN1CCC(C(=O)Nc2cc3cc(-c4cnsc4)ccc3cn2)CC1 [Compound 970] ? 1

Now the same for Cn1cc(-c2ccc3cnc(NC(=O)C45CC(CO)(C4)C5)cc3c2)cn1 [Compound 1083] -1

Another molecule to check: C[C@H](C(=O)Nc1cc2cc(-c3cnn(C)c3)ccc2cn1)N1CCCC1 [Compound 318] 1

What do we get for Cc1ncc(-c2ccc3cnc(NC(=O)[C@H]4C[C@H](N5CCOCC5)C4)cc3c2)o1 [Compound 1061] ? 1

And the next one, CN1CCN(C(=O)Nc2cc3cc(-c4cnn(C)c4)ccc3cn2)CC1 [Compound 316] ? 1

---
Could you please tell me whether EC50 recorded for C[C@@H]1CN(CC(=O)Nc2cc3cc(-c4cnn(C)c4)ccc3cn2)C[C@H](C)O1 [Compound 344] is less than 3000 nM? -1

---

Attribute: log10 of EC50
TARGET: recombinant DYRK1A kinase (Homo sapiens (Human), UniProt Q13627)
TEST_METHOD_NOTES: DYRK1A kinase assay (Ser/Thr 18 peptide Z-lyte FRET);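 also: Read-out is the coumarin to fluorescein emission ratio, referenced to unphosphorylated (0%) and phosphorylated (100%) Ser/Thr 18 peptide controls, values from dose-response curves by non-linear regression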
DETAILS: 30 μM ATP, 1 h room temperature
Each number you see is log10 of EC50, and the unit inside the log is nM.

What log10 of EC50 appears in the records for this compound with recombinant DYRK1A kinase (Homo sapiens (Human), UniProt Q13627)? CC(C)CN1CCC(F)(C(=O)Nc2cc3cc(-c4cn(C)nn4)ccc3cn2)CC1 0.91

Thanks! And Cn1cc(-c2ccc3cnc(NC(=O)CN4CCC(C(F)F)CC4)cc3c2)cn1 ? 0.45

New cases:
Request - read-out log10 of EC50 | tested on recombinant DYRK1A kinase (Homo sapiens (Human), UniProt Q13627) | compound Cc1ncc(-c2ccc3cnc(NC(=O)[C@H]4CC[C@H](CN5CC(F)C5)CC4)cc3c2)o1 0.40

# iterate: Cn1cc(-c2ccc3cnc(NC(=O)C4CCN(CCC(F)(F)F)CC4)cc3c2)cn1 -0.05

And for C[C@H](C(=O)Nc1cc2cc(-c3cnn(C)c3)ccc2cn1)N1CCCC1 ? 1.77
